# measurement-protocol: Protease stability in simulated intestinal fluids (FaSSIF) (Table 7)
# Type: in vitro ADME
# reported-conditions: fassif with pancreatin, 120 min, 37° C., read-out: Remaining percentage of peptide compound, FaSSIF 120 (min)
Numbered stars: 1 amine (or outer) side, 2 acyl side, 3 side chain; on linkers, the order of the positions; unused ones are H or OH. Bridge positions count the residues as written; N and C are the ends. Square brackets hold non-standard residues; d marks the D form. Peptide text beside a SMILES is read from it. * marks the point of attachment. Lys(Me,(CH2)4NMe(CH2)4CO) = CN(CCCCC(=O)[*:3])CCCCN(C)CCCC[C@H](N[*:1])C(=O)[*:2]; Trp(7-Me) = Cc1cccc2c(C[C@H](N)C(=O)O)c[nH]c12; NH(CH2)9CO = O=C(CCCCCCCCCN[*:1])[*:2]; 2Nal = N[C@@H](Cc1ccc2ccccc2c1)C(=O)O; 3Pal = N[C@@H](Cc1cccnc1)C(=O)O; Thp = NC1(C(=O)O)CCOCC1; Me2NCH2CH2 = CN(C)CC*; Aib = CC(C)(N)C(=O)O; Sar = CNCC(=O)O
outcome-measure: remaining at 2 h, 1 µM (%)
Only the number, expressed in %, is required.

Cc1cccc2c(C[C@@H]3NC(=O)CCCCN(C)CCCCN(C)CCCC[C@@H](C(=O)N[C@@H](CC(N)=O)C(=O)N[C@@H](Cc4cccnc4)C(=O)N(C)CC(N)=O)NC(=O)C(C)(C)NC(=O)[C@H](Cc4ccc5ccccc5c4)NC(=O)[C@H](Cc4ccc(OCCN(C)C)cc4)NC(=O)C4(CCOCC4)NC(=O)[C@H](CCC(N)=O)NC3=O)c[nH]c12 [compound 46] ([Trp(7-Me)]Q[Thp]Y(Me2NCH2CH2)[2Nal][Aib][Lys(Me,(CH2)4NMe(CH2)4CO)]N[3Pal][Sar]-NH2; lactam N-7) = 85
Cc1cccc2c(C[C@@H]3NC(=O)CCCCCCCCCNC(=O)CC[C@@H](C(=O)N[C@@H](CC(N)=O)C(=O)N[C@@H](Cc4cccnc4)C(=O)N(C)CC(N)=O)NC(=O)C(C)(C)NC(=O)[C@H](Cc4ccc5ccccc5c4)NC(=O)[C@H](Cc4ccc(OCCN(C)C)cc4)NC(=O)C4(CCOCC4)NC(=O)[C@H](CCC(N)=O)NC3=O)c[nH]c12 [compound 5] ([NH(CH2)9CO][Trp(7-Me)]Q[Thp]Y(Me2NCH2CH2)[2Nal][Aib]EN[3Pal][Sar]-NH2; lactam N-8) = 74

Here is another molecule to look at.
QUERY: Provide only the value of recorded remaining at 2 h, 1 µM for CC(=O)NCCCC[C@@H]1NC(=O)[C@H](Cc2c[nH]c3c(C)cccc23)NC(=O)[C@@H](NC(C)=O)CCCCN(C)CCCCN(C)CCCC[C@@H](C(=O)N[C@@H](CC(N)=O)C(=O)N[C@@H](Cc2cccnc2)C(=O)N(C)CC(N)=O)NC(=O)C(C)(C)NC(=O)[C@@H](Cc2ccc3ccccc3c2)NC(=O)[C@H](Cc2ccc(OCCN(C)C)cc2)NC(=O)C2(CCOCC2)NC1=O [compound 13]
RESULT: 89
